- Test system: 2.2.15 cells
- TEST_PROTOCOL: neutral red dye uptake cytotoxicity
- Type: cell-based
- REPORTED_CONDITIONS: 9 days treatment, read-out: 50% Cell Death CC50

{"columns": ["MOLECULE", "CC50"],
 "data": [
  ["O=[N+]([O-])c1ccc(Nc2nc(NN=Cc3ccc(Br)cc3)nc(N3CCCCCC3)n2)cc1 [Compound 117]", "> 300 µM"],
  ["CCN(CC)CCNc1ccc2c3c(cccc13)C(=O)N(Nc1nc(NCc3ccccc3)nc(N(CC)CC)n1)C2=O [Compound 27]", "> 300 µM"],
  ["CN(C)c1nc(NCc2ccccc2)nc(NN=Cc2ccc(Cl)cc2Cl)n1 [Compound 224]", "> 300 µM"],
  ["Cc1ccc(C=NNc2nc(Nc3ccc([N+](=O)[O-])cc3)nc(Nc3ccccc3C)n2)cc1 [Compound 15]", "0.6 µM"],
  ["C(=Cc1ccccc1)C=NNc1nc(Nc2ccccc2)nc(N2CCCC2)n1 [Compound 213]", "> 300 µM"],
  ["Oc1ccc(Cl)cc1C=NNc1nc(Nc2ccc3ccccc3c2)nc(N2CCOCC2)n1 [Compound 160]", "> 300 µM"],
  ["COc1cccc(C=NNc2nc(Nc3ccccc3)nc(N3CCCC3)n2)c1O [Compound 170]", "499 µM"],
  ["FC(F)(F)c1cccc(Nc2nc(Nc3cccc(Br)c3)nc(N3CCOCC3)n2)c1 [Compound 38]", "125 µM"]
]}

---

- System: 2.2.15 cells
- TEST_PROTOCOL: neutral red dye uptake cytotoxicity
- Type: cell-based
- REPORTED_CONDITIONS: 9 days treatment, read-out: 50% Cell Death CC50
Response field label: string, one of yes (CC50 strictly below 200 µM) or no.

{"columns": ["COMPOUND", "LABEL_CLASS"],
 "data": [
  ["Cc1ccc(Nc2nc(NCc3ccccc3)nc(Nc3ccc([N+](=O)[O-])cc3)n2)cc1C [Compound 194]", "no"],
  ["CC(C)c1ccc(C=NNc2nc(Nc3ccc([N+](=O)[O-])cc3)nc(N3CCCCCC3)n2)cc1 [Compound 56]", "yes"],
  ["CCN(CC)c1nc(NN=Cc2ccc(F)cc2)nc(Nc2ccc([N+](=O)[O-])cc2)n1 [Compound 68]", "no"],
  ["COc1ccccc1C=NNc1nc(Nc2ccc([N+](=O)[O-])cc2)nc(Nc2ccc(C)c(C)c2)n1 [Compound 94]", "no"],
  ["Cc1ccc(Nc2nc(NCc3ccccc3)nc(NN=Cc3ccccc3F)n2)cc1C [Compound 228]", "no"],
  ["Cc1ccc(Nc2nc(NCc3cc(F)ccc3F)nc(Nc3ccc([N+](=O)[O-])cc3)n2)cc1C [Compound 248]", "yes"]
]}

---

- Test system: 2.2.15 cells
- TEST_PROTOCOL: neutral red dye uptake cytotoxicity
- Assay type: cell-based
- REPORTED_CONDITIONS: 9 days treatment, read-out: 50% Cell Death CC50
Please use Fulfilled for CC50 under 100 µM and Not fulfilled for everything else, ties included.

{"columns": ["RECORD_SMILES", "TEST_TARGET", "LABEL_CLASS"],
 "data": [
  ["CNc1nc(NN=Cc2ccccc2C(F)(F)F)nc(Nc2cccc(C(F)(F)F)c2)n1", "2.2.15 cells", "Not fulfilled"],
  ["CCCCN(CCCC)c1nc(NN=Cc2ccc([N+](=O)[O-])cc2)nc(Nc2ccc([N+](=O)[O-])cc2)n1", "2.2.15 cells", "Not fulfilled"],
  ["Ic1cccc(C=NNc2nc(Nc3ccc4ccccc4c3)nc(N3CCOCC3)n2)c1", "2.2.15 cells", "Not fulfilled"],
  ["Cc1ccc(Nc2nc(NNC(=O)c3ccccc3O)nc(Oc3ccc([N+](=O)[O-])cc3)n2)cc1C", "2.2.15 cells", "Not fulfilled"],
  ["CNc1nc(NN=Cc2cc(Cl)ccc2O)nc(Nc2ccccc2)n1", "2.2.15 cells", "Not fulfilled"],
  ["COc1ccc(Nc2nc(NCCc3ccccc3)nc(N(C)C)n2)cc1OC", "2.2.15 cells", "Fulfilled"],
  ["CC(C=NNc1nc(Nc2ccc([N+](=O)[O-])cc2)nc(Nc2ccc(C)c(C)c2)n1)=Cc1ccccc1", "2.2.15 cells", "Not fulfilled"],
  ["Oc1c(Br)cc(Cl)cc1/C=N/Nc1nc(Nc2cccc(C(F)(F)F)c2)nc(N2CCOCC2)n1", "2.2.15 cells", "Fulfilled"]
]}
